B1: DnaJ homolog subfamily C member 2, residues 451 to 503; numbered along this chain, Q99543 (parent)
chain: SKNWSEDDLQLLIKAVNLFPAGTNSRWEVIANYMNIHSSSGVKRTAKDVIGKA

- Variants of: B1
- measurement-description: abundance fitness (aPCA) (normalised: wild type 0, dead -1); higher = more abundant; growth selection in yeast, the domain comes from the species named
- condition-summary: Homo sapiens
Decide by abundance fitness: equal to or exceeding 0.01 means MET, less means NOT MET.

{"variant-annotation": "D48L", "class-label": "NOT MET"}
{"variant-annotation": "E28S", "class-label": "NOT MET"}
{"variant-annotation": "V49F", "class-label": "NOT MET"}
{"variant-annotation": "L9N", "class-label": "MET"}
{"variant-annotation": "S25W", "class-label": "NOT MET"}
{"variant-annotation": "A46K", "class-label": "NOT MET"}
{"variant-annotation": "I30N", "class-label": "NOT MET"}
{"variant-annotation": "V16Q", "class-label": "MET"}

Test whether the variant I13L records abundance fitness of 0.01 or higher.
MET

One more variant: D7R
MET

Moving on to the next variant: V42F
NOT MET

Entry L18G please
NOT MET
